// values below are reported pIC50
Test system: HUVEC
Assay: Inhibition of FGF-induced proliferation of HUVEC cells
Type: functional, cell-based
Conditions: Homo sapiens
By convention, pIC50 is the negative base-10 log of a molar concentration.

Illustrative cases are given below, each with its answer.
sample_smiles: COc1cc2nccc(Oc3ccc4c(c3)OCCN4C(=O)Nc3ccc(Cl)cc3)c2cc1C(N)=O
pIC50: 6.54
--
sample_smiles: COc1cc2nccc(Oc3ccc4c(c3)OCCN4C(=O)Nc3ccc(C)cc3)c2cc1OC
pIC50: 6.55
--
sample_smiles: COc1cc2nccc(Oc3ccc4c(c3)OCCN4C(=O)N[C@H](C)c3ccccc3)c2cc1OC
pIC50: 5.96

Now consider the entry below.
Determine reported pIC50 for COc1cc2nccc(Oc3ccc4c(c3)OCCN4C(=O)NCc3ccc(C)cc3)c2cc1OC ; test system: HUVEC. 5.96

###

Target: UniProt P06239
Sequence (P06239 whole entry): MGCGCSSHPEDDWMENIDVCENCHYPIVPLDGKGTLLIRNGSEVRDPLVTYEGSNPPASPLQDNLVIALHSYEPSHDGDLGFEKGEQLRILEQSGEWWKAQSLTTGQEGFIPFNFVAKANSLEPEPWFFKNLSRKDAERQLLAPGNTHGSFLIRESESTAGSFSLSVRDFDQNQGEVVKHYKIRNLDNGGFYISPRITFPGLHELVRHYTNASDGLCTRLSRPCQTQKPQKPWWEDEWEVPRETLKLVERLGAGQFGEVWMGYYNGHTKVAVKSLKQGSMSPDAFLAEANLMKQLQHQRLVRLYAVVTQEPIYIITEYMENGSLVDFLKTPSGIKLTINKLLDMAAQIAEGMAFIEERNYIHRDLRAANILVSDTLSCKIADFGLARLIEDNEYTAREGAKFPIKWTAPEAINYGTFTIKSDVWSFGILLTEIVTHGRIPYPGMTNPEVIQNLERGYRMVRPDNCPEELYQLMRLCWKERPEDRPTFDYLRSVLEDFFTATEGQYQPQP
parameter: pIC50
Just so you know, pIC50 here is -log10 of the concentration in molar units; reply with that number alone.

Print UniProt P06239 pIC50 for CNC(=O)N1CCOc2cc(Oc3ccnc4cc(OC)c(OC)cc34)ccc21 . 5.62

Enter measured pIC50, system UniProt P06239, for the compound shown: COc1cc2nccc(Oc3ccc4c(c3)OCCN4C(=O)Nc3cccc(Cl)c3)c2cc1OC 8.40

###

As shown below, each of these compounds has a reported microsomal CLint value.
Test: Metabolic stability in rat liver microsomes
Assay type: ADME, Microsome
Conditions: read-out: Stability
Your answer should be a plain number; it is taken to be in µL/min/mg.

In the examples that follow, each entry is paired with its recorded microsomal CLint.
sample_smiles: COc1cc2nccc(Oc3ccc4c(c3)OCCN4C(=O)Nc3ccc(C)cc3)c2cc1OC
readout_unit: µL/min/mg
microsomal CLint: 104
//
sample_smiles: COc1cc2nccc(Oc3ccc4c(c3)OCCN4C(=O)N[C@@H](C)c3ccccc3)c2cc1OC
readout_unit: µL/min/mg
microsomal CLint: 188
//
sample_smiles: COc1cc2nccc(Oc3ccc4c(c3)OCCN4C(=O)Nc3ccc(C)cc3)c2cc1C(N)=O
readout_unit: µL/min/mg
microsomal CLint: 96
//
sample_smiles: COc1cc2nccc(Oc3ccc4c(c3)OCCN4C(=O)Nc3ccccc3)c2cc1OC
readout_unit: µL/min/mg
microsomal CLint: 122
//
sample_smiles: COc1cc2nccc(Oc3ccc4c(c3)OCCN4C(=O)Nc3ccc(Cl)cc3)c2cc1C(N)=O
readout_unit: µL/min/mg
microsomal CLint: 25

Assign microsomal CLint to the following record: COc1cc2nccc(Oc3ccc4c(c3)OCCN4C(=O)Nc3ccc(Cl)cc3)c2cc1OC 44

Tell me measured microsomal CLint for COc1cc2nccc(Oc3ccc4c(c3)OCCN4C(=O)Nc3ccc(F)cc3)c2cc1OC please. 74

###

Each entry below carries its reported IC50.
Tested on: HUVEC
Test: Inhibition of VEGF-induced proliferation of HUVEC cells
Format: functional, cell-based
Details: Homo sapiens
Please state the figure in nM; there is no need to write the unit.

Study these solved cases before continuing.
sample_smiles: COc1cc2nccc(Oc3ccc4c(c3)OCCN4C(=O)Nc3ccccc3)c2cc1OC
readout_unit: nM
data_value: 0.6

sample_smiles: COc1cc2nccc(Oc3ccc4c(c3)OCCN4C(=O)Nc3ccc(Cl)cc3)c2cc1C(N)=O
readout_unit: nM
data_value: 1

sample_smiles: COc1cc2nccc(Oc3ccc4c(c3)OCCN4C(=O)NCc3ccccc3)c2cc1OC
readout_unit: nM
data_value: 237

sample_smiles: COc1cc2nccc(Oc3ccc4c(c3)OCCN4C(=O)N[C@@H](C)c3ccccc3)c2cc1OC
readout_unit: nM
data_value: 3

sample_smiles: COc1cc2nccc(Oc3ccc4c(c3)OCCN4C(=O)N[C@H](C)c3ccccc3)c2cc1OC
readout_unit: nM
data_value: 250

sample_smiles: COc1cc2nccc(Oc3ccc4c(c3)OCCN4C(=O)Nc3ccc(C)cc3)c2cc1C(N)=O
readout_unit: nM
data_value: 1

sample_smiles: COc1cc2nccc(Oc3ccc4c(c3)OCCN4C(=O)Nc3ccc(F)cc3)c2cc1OC
readout_unit: nM
data_value: 2

Here is the next item to consider.
Write down IC50 measured for item COc1cc2nccc(Oc3ccc4c(c3)OCCN4C(=O)Nc3ccccc3Cl)c2cc1OC 73
